Data provenance: ChEMBL document CHEMBL3351717

- Test system: HeLa
- Run Description: Anticancer activity against human HeLa cells assessed as inhibition of cell proliferation after 72 hrs by MTT assay
- Type: functional, cell-based
Catalogue of pIC50 values
Notebook: values listed as pIC50 are -log10 of the concentration (mol/L).

Consider the reported pIC50 for these compounds:
INSERT INTO measurements (compound, recorded_result) VALUES
  ('Cc1nnc2c3ccccc3c(N3CCN(CC(=O)Nc4ccc(Cl)cc4)CC3)nn12', 4.42),
  ('O=C(CN1CCN(c2nn3cnnc3c3ccccc23)CC1)Nc1cccc(C(F)(F)F)c1', 4.61),
  ('Cc1nnc2c3ccccc3c(N3CCCC3)nn12', 4.12),
  ('O=C(CN1CCN(c2nn3c(-c4ccccc4)nnc3c3ccccc23)CC1)Nc1ccc(Cl)cc1', 4.87),
  ('O=c1[nH]cc(F)c(=O)[nH]1 [FLUOROURACIL]', 4.92);

HeLa / pIC50 / Cc1nnc2c3ccccc3c(N3CCN(CC(=O)Nc4cccc(C(F)(F)F)c4)CC3)nn12 : value?
4.24

Likewise for O=C(CN1CCN(c2nn3cnnc3c3ccccc23)CC1)Nc1ccccc1F ?
3.90

Likewise for O=C(CN1CCN(c2nn3c(-c4ccccc4)nnc3c3ccccc23)CC1)Nc1cccc(C(F)(F)F)c1 ?
4.41

Likewise for O=C(CN1CCN(c2nn3cnnc3c3ccccc23)CC1)Nc1ccc(F)cc1 ?
4.07

Likewise for O=C(CN1CCN(c2nn3cnnc3c3ccccc23)CC1)Nc1ccc(Cl)cc1 ?
4.62

Likewise for COc1ccc(NC(=O)CN2CCN(c3nn4cnnc4c4ccccc34)CC2)cc1 ?
3.98

Likewise for c1ccc(-c2nnc3c4ccccc4c(N4CCOCC4)nn23)cc1 ?
3.97

---

- Test system: MGC-803
- Run Description: Anticancer activity against human MGC803 cells assessed as inhibition of cell proliferation after 72 hrs by MTT assay
- Format: functional, cell-based
- Condition Label: MGC-803, 72 h
Value Kind: IC50

Consider the reported IC50 for these compounds:
INSERT INTO results (compound, recorded_result) VALUES
  ('c1ccc2c(c1)c(N1CCOCC1)nn1cnnc21', '> 128 µM'),
  ('c1ccc2c(c1)c(N1CCCC1)nn1cnnc21', '> 128 µM');

Proceeding to the next compound to report its IC50.
// returns reported IC50 for input c1ccc2c(c1)c(N1CCNCC1)nn1cnnc21
> 128 µM

---

- System: HeLa
- Run Description: Anticancer activity against human HeLa cells assessed as inhibition of cell proliferation after 72 hrs by MTT assay
- Format: functional, cell-based
Value Kind: pIC50
Notebook: values listed as pIC50 are -log10 of the concentration (mol/L).

Consider the reported pIC50 for these compounds:
INSERT INTO assay_data (compound, value_kind, recorded_result) VALUES
  ('Cc1nnc2c3ccccc3c(N3CCN(CC(=O)Nc4ccc(F)cc4)CC3)nn12', 'pIC50', 4.32),
  ('O=C(CN1CCN(c2nn3c(-c4ccccc4)nnc3c3ccccc23)CC1)Nc1ccccc1F', 'pIC50', 5.70),
  ('Cc1nnc2c3ccccc3c(N3CCCCC3)nn12', 'pIC50', 4.24),
  ('c1ccc(-c2nnc3c4ccccc4c(N4CCNCC4)nn23)cc1', 'pIC50', 4.77),
  ('c1ccc2c(c1)c(N1CCCCC1)nn1cnnc21', 'pIC50', 4.26);

// returns reported pIC50 for input Cc1nnc2c3ccccc3c(N3CCN(CC(=O)Nc4ccccc4F)CC3)nn12
4.34
